- System name: MGL (Rattus norvegicus)
- Construct: one g rat brain was homogenized using a Polytron homogenizer; from tissue; host or cells: rat brain homogenate
- Sequence (Q8R431 1-303): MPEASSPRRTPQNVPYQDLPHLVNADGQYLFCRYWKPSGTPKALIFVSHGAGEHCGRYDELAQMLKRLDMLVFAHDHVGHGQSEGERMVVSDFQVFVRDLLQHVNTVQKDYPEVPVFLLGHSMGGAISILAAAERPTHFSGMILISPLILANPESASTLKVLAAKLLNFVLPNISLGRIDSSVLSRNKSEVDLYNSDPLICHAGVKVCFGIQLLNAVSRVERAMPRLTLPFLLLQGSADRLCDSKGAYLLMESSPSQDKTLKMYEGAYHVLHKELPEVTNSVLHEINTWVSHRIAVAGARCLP
- Protocol details: 2-AG accumulation assay in rat brain homogenate
- Format: biochemical
- Measurement context: rat brain homogenate; compound 1 μM; 2-AG accumulation as percent of vehicle; read-out: Rat Brain 2AG % VehCntrl (%) @ 1 μM
Reported metric: 2-AG accumulation, % of vehicle control at 1 µM (%)

Illustrative cases are given below, each with its answer.
Smiles data: Cn1cc(-c2ccccc2)c2ccc(C(=O)N3CC(N4CCN(C(=O)c5cscn5)CC4)C3)cc21
Unit abbrev: %
Result number: 617
//
Smiles data: O=C(c1ccc(-c2ccc(Cl)c(Cl)c2)cc1)N1CC(N2CCN(C(=O)c3nccs3)CC2)C1
Unit abbrev: %
Result number: 706

(a) N#Cc1ccccc1-n1ccc2cc(C(=O)N3CC(N4CCN(C(=O)c5nccs5)CC4)C3)ccc21
(b) O=C(c1cccc(-c2cccc(C(F)(F)F)c2)c1)N1CC(N2CCN(C(=O)c3nccs3)CC2)C1
[in] Which gives the smaller 2-AG accumulation, % of vehicle control at 1 µM number: a or b ? Use the label to indicate which entry you chose.
[out] b

(1) CCCCCc1ccc(C(=O)N2CC(N3CCN(C(=O)c4nccs4)CC3)C2)cc1
(2) O=C(c1ccc2c(c1)CCN(S(=O)(=O)C1CCCCC1)C2)N1CC(N2CCN(C(=O)c3nccs3)CC2)C1
[in] Which shows the larger 2-AG accumulation, % of vehicle control at 1 µM value: 1 or 2 ? Identify your pick by its label.
[out] 2
(2: 896%, 1: 626%)

(a) O=C(c1cc(F)c2c(ccn2-c2ccc(F)cc2)c1)N1CC(N2CCN(C(=O)c3nccs3)CC2)C1
(b) O=C(c1ccc2nc(-c3cccc(C(F)(F)F)c3)oc2c1)N1CC(N2CCN(C(=O)c3cscn3)CC2)C1
[in] Choose between a and b : whose measured 2-AG accumulation, % of vehicle control at 1 µM value is numerically larger? Response format: the label of the selected entry.
[out] a
(a: 873%, b: 482%)

(a) Cc1c(C(=O)N2CC(N3CCN(C(=O)c4cscn4)CC3)C2)sc2ccc(-c3ccccc3)cc12
(b) O=C(c1ccc(-c2ccccc2)cc1)N1CCN(C2CN(C(=O)c3nccs3)C2)CC1
[in] Lower value of 2-AG accumulation, % of vehicle control at 1 µM belongs to which: a or b ? Refer to your chosen entry by its label in the reply.
[out] b
(b: 167%, a: 590%)

(P) O=C(c1ccc(-c2nc(-c3ccccc3)c(-c3ccccc3)[nH]2)cc1)N1CC(N2CCN(C(=O)c3nccs3)CC2)C1
(Q) O=C(c1ccc(C(F)(F)c2ccccc2)cc1)N1CC(N2CCN(C(=O)c3nccs3)CC2)C1
(R) O=C(c1ccns1)N1CC(N2CCN(C(=O)c3cc4cc(C(F)(F)F)ccc4s3)CC2)C1
(S) O=C(c1cscn1)N1CCN(C2CN(C(=O)c3ccc(-c4ccc(F)c(Cl)c4)cc3Cl)C2)CC1
(T) O=C(c1ccc(OCc2cccnc2)c(Cl)c1)N1CC(N2CCN(C(=O)c3nccs3)CC2)C1
[in] Put the items in order so that reported 2-AG accumulation, % of vehicle control at 1 µM rises from first to last. Form entry: ranked labels (order as requested).
[out] T, S, R, Q, P
(T: 97%, S: 162%, R: 346%, Q: 626%, P: 996%)

(1) Cc1c(Cc2ccc(C(F)(F)F)cc2)cccc1C(=O)N1CC(N2CCN(C(=O)c3cscn3)CC2)C1
(2) O=C(c1cc(-c2ccc(Cl)cc2)n(-c2ccc(Cl)c(Cl)c2)n1)N1CC(N2CCN(C(=O)c3nccs3)CC2)C1
[in] Which record shows the lower 2-AG accumulation, % of vehicle control at 1 µM: the first, 1 , or the second, 2 ? Mark your answer with the label of the selected entry.
[out] 2
(2: 299%, 1: 706%)

(P) O=C(c1ccc(-c2cccc(C(F)(F)F)c2)cc1)N1CC(N2CCN(C(=O)c3cscn3)CC2)C1
(Q) C/C(=C\c1ccc(Cl)cc1)c1c(C)c(C(=O)N2CC(N3CCN(C(=O)c4ccc[nH]4)CC3)C2)nn1-c1ccc(Cl)cc1Cl
(R) Cc1cc(-c2ccccc2)ccc1C(=O)N1CC(N2CCN(C(=O)c3nccs3)CC2)C1
[in] Exam item: list the entries in increasing order of 2-AG accumulation, % of vehicle control at 1 µM. List the labels according to the requested ordering.
[out] R, P, Q
(R: 303%, P: 552%, Q: 994%)
